We begin with a simple list: items and their reported ED50.
species: Mus musculus; assay: Ability to block convulsions in the maximal electroshock test (MES) in mice; assay type: functional; conditions: read-out: ID50 (the source's name)

Would you please look over these solved cases?
line_notation	ED50
C[C@@H](CN1CCC2(C)c3ccc(O)cc3C[C@H]1C2(C)C)Oc1ccccc1	> 100 mg/kg
C[C@@H](CN1CCC2(C)c3ccc(O)cc3C[C@@H]1C2(C)C)Oc1ccccc1	> 30 mg/kg
C[C@H](CN1CCC2(C)c3cccc(O)c3C[C@H]1C2(C)C)OCc1ccccc1	> 100 mg/kg
C[C@H](CN1CCC2(C)c3ccc(O)cc3C[C@H]1C2(C)C)OCc1ccccc1	> 100 mg/kg
C[C@@H](CN1CCC2(C)c3ccc(O)cc3C[C@H]1C2(C)C)OCc1ccccc1	> 100 mg/kg
C[C@@H](CN1CCC2(C)c3cccc(O)c3C[C@@H]1C2(C)C)OCC1CCCCC1	> 30 mg/kg

Kindly consider the entry below.
Query: Look up ED50: C[C@@H](CN1CCC2(C)c3cccc(O)c3C[C@H]1C2(C)C)OCc1ccccc1
Response: > 100 mg/kg

###

We begin with a simple list: items and their reported IC50.
target: Sodium channel alpha subunits; brain (Types I, II, III) (Rattus norvegicus, UniProt P04775+P04774+P08104); test: Inhibitory effect against veratridine-induced glutamate release from rat brain slices; assay type: functional
# value in nmol/L; strip the unit string

line_notation	IC50 / nmol/L
Cc1ccc(-c2nc(CN3CCN(C(c4ccccc4)c4ccccc4)CC3)c(C)[nH]2)cc1	494

Kindly consider the entry below.
Query: Look up IC50: CC12CCN(CCc3ccccc3)[C@@H](Cc3cc(O)ccc31)C2(C)C
Response: 5029
